Tested on: MS2 coat protein
Assay: apparent KD of MS2 coat protein; designed switch direction (-1 OFF switch, 1 ON switch): -1; higher = weaker reporter binding
Details: Eterna round: R95; input ligand: none
Assay Metric: apparent KD of MS2 coat protein (nM)
Give bare numbers, in nM.

A selection of reference data follows.
Macromolecule Sequence	System Name	Unit Of Measure	apparent KD of MS2 coat protein
CUUAGACAUGAGGAUCACCCAUGUGAGGAUAUGAAAUUAAUUAAUUAUGAAGUAUGAAUCAGAAGGCACAUAUG [Mat - Mod of Hyphema D35] (puzzle: Exclusion 1)	MS2 coat protein	nM	118
AUUAUAACAUAGGAUAUCGAAUUUAUCAUUUAACGAGAAGGAUGAACAUGAGGAUCACCCAUGUGGUAUCAUGG [Mat - Exclusion 6 - JL Mod - D3] (puzzle: Exclusion 6)	MS2 coat protein	nM	33.5
GGUACUAACACGAGAGUGUUAGUACUAUAAGCUUGUGUUACAUGAGGAUCACCCAUGUCCUCAUAAGCUCGUCUUGU [Mat - Sensor v3 - Turn-off var 2 - D88] (puzzle: Sensor v3, turn-off variant 2)	MS2 coat protein	nM	46.8

Batch: apparent KD of MS2 coat protein for all items listed.
1. GAUAAGGUAGGAUAUACGAAGAAAGAGGGUAGUAAUAAUACACAUGAGGAUCACCCAUGUAGAAGGACCAAGAG [Mat - Exclusion 2 - Mod of my Tesla design - D44] (puzzle: Exclusion 2)
2. GCCAGAGCAGGAUAUUCAAUGUAUCACAUGAGGAUCACCCAUGUCCAGCGAAAGCUGGAGGGAGAAGGGCUCUGGC [Fiskers Ex 5 - 17] (puzzle: Exclusion 5)

-- reply
[22.1, 257]

###

Test system: K4 kissing-loop RNA reporter;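 also: bound reporter read as fluorescence of individual clusters on recovered sequencing chips by microscopy, with normalized cluster intensities fitted with a binding model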
Assay: apparent KD of K4 kissing-loop reporter; higher = weaker reporter binding
Details: Eterna round: R107; input ligand: FMN 200 uM
Assay Metric: apparent KD of K4 kissing-loop reporter (nM)
Numbers only, in nM.

Past entries and their recorded results:
Macromolecule Sequence	Unit Of Measure	apparent KD of K4 kissing-loop reporter
UGUAUGGACUGAAGGAGCGGUAGAUAAACUGAGUGAUGUUCGGCAAAUAAAGGCGCAAGCCACCAGGUAGGUCGCAGUCCAUACU [KL-SSArg B1]	nM	289
UGUGUUGUUUUGAUGUUUGGUGUUUGUUGGCAGGAUAUCGUAGAGGCGAGAAGGGCUUUGUUGCGGUAUGAGUGAUGUUUGUAGG [szzrmullin]	nM	349
AAUUUAUAUUUAUUCUUUAAUUGUUCAGAAGGAGCGUGAAUUAUCACAGGUAGGUCGCUGAGCUAGUGAUGUUAGCUAUAUACUA [JR_ExcArginiA_Sub008]	nM	65.5
AACCACUCGUUACAUCACUAUCGAGUGGAACGAGGACCGGUACGGCCGCCACUCGGUAUCUUGCAGUGAUGUUGCAAGAAAGAAU [KL-SSTryp-A #dotplot2 strengthened]	nM	212
UAACUUGCAGUGAUGUUGCAAGAACUGGAUACCAGCAUGGAAACAUGCCCUUGGCAGCCAGAAGCUGGCUGAACAUCACGUCAGU [Design5]	nM	227

Lab note: next sequence to report on.
-- ask Which apparent KD of K4 kissing-loop reporter is listed for GCAGUGAUGUUGCGCGAGUACGGUAGAGUACGAGGACCGGUACGGCCGCCACUCGUACGGAACUGGCUAAUUUAUGGAAUGGUGA [III] ?
-- reply 254

###

System: MS2 coat protein
Assay: apparent KD of MS2 coat protein; higher = weaker reporter binding
Settings: Eterna round: R107; input ligand: theophylline 2 mM
Provide the reported apparent KD of MS2 coat protein of each item.
Numbers only, in nM.

> print(dat)
                     macromolecule.sequence  unit.of.measure  value.measured
1  AUACAUGAGGAUCACCCAUGUCCUCGUGAUCGAGGACCGGUACGGCCGCCACUCGGUCCUCGCGAGGAGGAGUCAAAGACUCCAA [Omei Trp A SS A v4]               nM             113
2  UGUAUGUGAUCUGAUACCAGCCUCAUAACUUGAGGAUCACCCAAGUGGAGCGGAAACGCUGGCCCUUGGCAGCAGAUCGCAUACU [TheoBS 2 #AlternativeMS2]               nM            15.3
3  AUAUAUACAUGAGGAUCACCCAUGUUAUUUCGAGGACCGGUACGGCCGCCACUCGAUAGAGUAGAAGUAAAUUUUGUUACAUGUA [JR_SSTryptoA_Sub010]               nM            10.8
4  GGAUAGGACAGAAGGAGCGACAUGAGGAUCACCCAUGUCUACUAGGACGAAAGUCCGUCAUGUCAGGUAGGUCGCUGUCCUAUCG [#29 Exclusion - Arginine B]               nM             114

Items follow; give apparent KD of MS2 coat protein for each.
1. AACAUGAGCACGGCCGCCACUCCAUGAACAUGAGGAUCACCCAUACACAUGAGGAUCACCCAUGUGAGGACCGGGUGUCCAUGUG [Exclusion Tryptophan B 2]
2. AGAGUCUAGUCGGCCGCCACUCAUGUCCAAUGGACAUGAGGAUCACCCAUGUACCAAAGGUACAUGAGGACCGGGACUGGACUCA [Omei Tryp B SS C v4]

-- reply
1: 16.5; 2: 83.3

###

Test system: MS2 coat protein
Test: apparent KD of MS2 coat protein; designed switch direction (-1 OFF switch, 1 ON switch): 1; higher = weaker reporter binding
Conditions: input ligand: none
Assay Metric: apparent KD of MS2 coat protein (nM)
Give bare numbers, in nM.

Known apparent KD of MS2 coat protein results, listed for orientation:
Macromolecule Sequence	System Name	apparent KD of MS2 coat protein [nM]
AGAUCAUGACGAGGAUAUGCAACAUGAGGAUCACCCAUGUAUGUUGCAGGACGCGUACGUCCAAUGUAGAAGGCGUCGUGGUCA [JL SSNG2 1.06] (Eterna round: R96, puzzle: Same State NG 2)	MS2 coat protein	150
AGCUAUUACGAAGGAUAUAGUGACAUGAGGAUCACCCAUGUGUACAUGAGUAAUUGUGAUCACGUCUAGAAGGUUGUACUAACA [SameState NG2 #35] (Eterna round: R96, puzzle: Same State NG 2)	MS2 coat protein	180
GGAGCCGGCCUAGGAUAUUUCAUUAUUAAACAUGAGGAUCACCCAUGUAGGCCAGAAGGCCUUGGGAAGAAGGAGGUCGGCUCC [Loop Effect - U24,U26,U28] (Eterna round: R96, puzzle: Same State NG 2)	MS2 coat protein	68.5
CCGCGCUGUCGAGAGGAUAUGCGGUGAUGGACAUGAGGAUCACCCAUGUUAGCGAUAGCAUUACUGUAGAAGGCUCUACGGCGGC [JL-ss2-3.09 ViennaUCT mod] (Eterna round: R96, puzzle: Same State 2)	MS2 coat protein	16.3
GUGAGAUGUUCAGGAUAUUUCAGGAUAGUUAAUCCAAGGCCAUCACAUGAGGAUCACCCAUGUCGAGAGAAGGGAAUUCUCAGG [Eternabot solution 43] (Eterna round: R96, puzzle: Same State NG 2)	MS2 coat protein	433

State the recorded apparent KD of MS2 coat protein for every item in the following list.
1. GCCGGCUGGUGAGGAUAUGGCGCCUUAUUGGUGCCAGAAGGCAUGUCAAUUGACAUGAGGAUCACCCAUGUGUUGUCGUUGGCG [salish99_SSNG1_r04_610] (Eterna round: R96, puzzle: Same State NG 1)
2. AUUAUUUAUGCAGGAUAUGAUUAACAUGAGGAUCACCCAUGUGGUGUUGUGAGUAAGGAGAGUGAUCAGAAGGGCAUUUUUUUC [JMF's solution 59] (Eterna round: R96, puzzle: Same State NG 2)
3. GCUGCAAUAAACGCCUACAUGAGGAUCACCCAUGUAUGUAGGCAGGAUAUCGUAUGCAAAGCAUACGAGAAGGGCUGUAGUAGC [Mat - Same State NG 3 - JL Mod - D39] (Eterna round: R96, puzzle: Same State NG 3)
4. GUAGCAUACCGAGGAUAUUCAUACAUGAGGAUCACCCAUGUUUAAUUAUAGGCCAAAAGGCCUUGGGAGAAGGCGGAAUGCUAC [Xeonanis - 20 Mod14] (Eterna round: R96, puzzle: Same State NG 2)

-- reply
1: 353; 2: 397; 3: 112; 4: 14.4

###

System: MS2 coat protein
Assay: apparent KD of MS2 coat protein; designed switch direction (-1 OFF switch, 1 ON switch): 1; higher = weaker reporter binding
Details: input ligand: microRNA oligo, concentration not stated
Assay Metric: apparent KD of MS2 coat protein (nM)
Answers are plain numbers, in nM.

Macromolecule Sequence	Unit Of Measure	apparent KD of MS2 coat protein
AAUUAAGAUCUAGGAUAUCACGUCGAAUAGACGUGAGAAGGAGAUCAUAACAUGAGGAUCACCCAUGUAUUACAUGAAUUAAUU [SSNG1/6-B1] (Eterna round: R96, puzzle: Same State NG 1)	nM	21.6
UUGAAGAAUUAAGGAUAUUGAGUACAUAUGUUAAACAUGAGGAUCACCCAUGUGGGUUGCGGUAUCGAGAAGGUAAAUUACUAG [Mat - same State NG 2 - JL mod - D68] (Eterna round: R96, puzzle: Same State NG 2)	nM	46.8
AGGACGAGCACAGGAUAUCCGCGGAACAGCCGCGGAGAAGGGUGAAGUCAUGGAAAGAAAAGACAUGAGGAUCACCCAUGUAAA [Ageteerer] (Eterna round: R96, puzzle: Same State NG 1)	nM	1320

-- ask Name the reported apparent KD of MS2 coat protein value associated with the sequence UCUGCUGCCCAAGGAUAUCAGCGUGGUAUCCACAUGAGGAUCACCCAUGUAGGUCAGCACUACCCUGAGAAGGUGGGAAAAUAA [Eternabot solution 2] (Eterna round: R96, puzzle: Same State NG 2)
-- reply 10.6
